System: endometrial adenocarcinoma Ishikawa cells
Test: Cell viability neutral red uptake assay, Ishikawa
Type: cell-based, human
Details: Homo sapiens, 48 h, read-out: IC50 values ± SD in neutral red uptake assay
Friendly reminder: IC50 below 40 µM is 1.0, at or above is 0.0.

The following compounds have reported results that may help.
compound: COc1ccc(-c2oc3cc(O)c(OC)c(O)c3c(=O)c2OC)cc1 [santin, 5,7-dihydroxy-3,6,4′-trimethoxyflavone]
assigned.label: 1.0

compound: COc1ccc(-c2oc3cc(O)cc(O)c3c(=O)c2OC)cc1
assigned.label: 0.0

compound: O=c1cc(-c2ccc(O)c(O)c2)oc2cc(O)cc(O)c12 [luteolin, reference compound]
assigned.label: 1.0

compound: COc1cc2oc(-c3ccc(O)cc3)cc(=O)c2c(O)c1OC
assigned.label: 1.0

Determine whether this compound shows IC50 lower than 40 µM (ties excluded): "COc1cc(O)c2c(c1)O[C@H](c1ccc(O)cc1)CC2=O"
0.0

Determine whether this compound shows IC50 lower than 40 µM (ties excluded): "COc1cc(O)c2c(=O)c(OC)c(-c3ccc(O)cc3)oc2c1"
0.0

Determine whether this compound shows IC50 lower than 40 µM (ties excluded): "O=c1c(O)c(-c2ccc(O)c(O)c2)oc2cc(O)cc(O)c12"
0.0

Determine whether this compound shows IC50 lower than 40 µM (ties excluded): O=c1cc(-c2ccc(O)cc2)oc2cc(O)cc(O)c12 [apigenin, reference compound]
1.0

Determine whether this compound shows IC50 lower than 40 µM (ties excluded): "O=c1c(O)c(-c2ccc(O)cc2)oc2cc(O)cc(O)c12"
0.0

----------
Here the recorded IC50 is given for each entry.
Test system: cervical adenocarcinoma HeLa cells
Test: Cell viability neutral red uptake assay, HeLa
Type: cell-based, human
Conditions: 48 h, read-out: IC50 values ± SD in neutral red uptake assay

Some molecules with recorded IC50:
molecule: N.N.[Cl][Pt][Cl] [cisplatin, reference compound]
assayed.target: cervical adenocarcinoma HeLa cells
IC50: 9.7 µM

molecule: COc1ccc(C2CC(=O)c3c(O)cc(OC)cc3O2)cc1 (stereo not drawn) [naringenin 7,4′-O-dimethyl ether]
assayed.target: cervical adenocarcinoma HeLa cells
IC50: > 50 µM

Attention now shifts to the item below.
What does the record list as IC50 for COc1ccc(-c2cc(=O)c3c(O)cc(OC)cc3o2)cc1 [apigenin 7,4′-O-dimethyl ether] ?
> 50 µM

----------
System: cervical adenocarcinoma HeLa cells
Experiment: Cell viability MTT assay, HeLa
Type: cell-based, human
Settings: Homo sapiens, HeLa, 48 h, HeLa, p53-silenced cells, 48 h; read-out: IC50, MTT assay
readout.kind: IC50 (µM)
All answers are understood in µM, so give the number only.

What does the record list as IC50 for COc1ccc(-c2oc3cc(O)c(OC)c(O)c3c(=O)c2OC)cc1 [santin, 5,7-dihydroxy-3,6,4′-trimethoxyflavone] ?
10.9

----------
Tested on: cervical adenocarcinoma HeLa cells
Experiment: Cell viability neutral red uptake assay, HeLa
Type: cell-based, human
Details: Homo sapiens, 48 h, read-out: IC50 values ± SD in neutral red uptake assay
Here the recorded IC50 is given for each entry.

What does the record list as IC50 for O=c1cc(-c2ccc(O)cc2)oc2cc(O)cc(O)c12 [apigenin, reference compound] ?
~14.2 µM

What does the record list as IC50 for COc1cc(O)c2c(=O)c(OC)c(-c3ccc(O)cc3)oc2c1 [kumatakenin] ?
> 50 µM

What does the record list as IC50 for COc1cc(O)c2c(c1)O[C@H](c1ccc(O)cc1)CC2=O [sakuranetin] ?
> 50 µM

What does the record list as IC50 for O=c1cc(-c2ccc(O)c(O)c2)oc2cc(O)cc(O)c12 [luteolin, reference compound] ?
~28 µM
